# Test system: HOP-92 NSCLC
# assay_explanation: NCI-60 one-dose screen, 48 h
# condition_details: 10 µM unless noted
Compounds without any hit were thinned out: in the full panel of roughly 83,000, 20% have a hit. Calls of active or inactive are those of the source. Rule for the calls: active = growth percent below 10; inactive = the rest.
Parameter call: string, one of 1.0 = active, 0.0 = inactive

>>> print(df.to_string())
                                   molecule  discrete_label
0  Fc1ccc(C2CC(c3cccc(Nc4ccncc4)c3)=NN2c2cc(Cl)cc(Cl)c2)cc1 (stereo not given)             0.0

Exam item: Hi, do you know how `CCc1c(Nc2ccc(C)cc2)nc(N)[nH]c1=O` came out in this test?
Marked response: 0.0

---

# Test system: SN12C renal
# assay_explanation: NCI-60 one-dose screen, 48 h
# condition_details: 10 µM unless noted
The panel holds about 83,000 compounds, 20% with a hit somewhere; the sample as a whole holds those more often. Activity calls are given as the source filed them. The calls were made as follows: active = growth percent below 10; inactive = the rest.
Response enum: y (active), n (inactive)

Below, 8 molecules whose answers are already recorded.
molecule	discrete_label
NC(=O)c1ccc[n+](CC(=O)N2CCN(c3cc4c(cc3F)c(=O)c(C(=O)O)cn4C3CC3)CC2)c1	n
CCCCCOc1ccc(/C=N/Nc2cc(C)nc3ccc(Br)cc23)cc1	y
c1cnc2nc3c(cc2c1)oc1ccccc13	n
CO[C@@H]1[C@H](N(C)C(=O)c2ccccc2)C[C@@H]2O[C@]1(C)n1c3ccccc3c3c4c(c5c6ccccc6n2c5c31)C(=O)NC4=O	n
Cc1cc(NC(=O)c2cnc(N3CCN(CCOCCOCCOCCOCCC(=O)N[C@H](C(=O)N4C[C@H](O)C[C@H]4C(=O)N[C@@H](C)c4ccc(-c5scnc5C)cc4)C(C)(C)C)CC3)cn2)c2ncccc2c1	y
COc1cc(NCC(C)(O)CN(CC(C)C)CC(C)C)c2nc(C)ccc2c1 (stereo not drawn)	n
O=C(O)c1ccc[n+](CC(=O)N2CCN(c3cc4c(cc3F)c(=O)c(C(=O)O)cn4C3CC3)CC2)c1	n
CCN(CC)CCCC(Nc1c2ccc(Cl)cc2nc2ccc(OC)cc12)c1ccc(Cl)cc1 (stereo not drawn)	n

Exam item: State the result this test recorded for `COc1cc(CNC(=O)CCCCC[P+](c2ccccc2)(c2ccccc2)c2ccccc2)c(OC)c2c1OCO2` .
Marked response: n

Exam item: // outcome(item) with item = `Cc1[nH]n(-c2cccc(Cl)c2)c(=O)c1/C=C1\C=Nc2ccc(Br)cc21`
Marked response: y

Exam item: For this molecule, state the assay outcome: `O=C(Nc1ccc(Cl)cc1)Nc1ccc(Cl)c(Cl)c1`
Marked response: y

Exam item: Per the records of this test, what outcome belongs to `COc1cc(/C=C/C(=O)c2ccc(Nc3ncnc4ccccc34)cc2)cc(OC)c1` ?
Marked response: n

Exam item: Dear colleague, could you share the recorded outcome for Cc1ccc(C2CC(c3cccc(Nc4ccncc4)c3)=NN2c2cc(Cl)cc(Cl)c2)cc1 (stereo not drawn) when you have a moment?
Marked response: n

---

In this section we review reported growth values for a set of compounds.
# Tested on: ACHN renal
# assay_explanation: NCI-60 one-dose screen, 48 h (100 = growth as untreated, 0 = no growth, -100 = all killed)
# condition_details: 10 µM unless noted
About 83,000 compounds went through this panel and 20% of them were active in at least one assay; those are over-represented in the sample as a whole. The source made the active and inactive calls. Rule for the calls: active = growth percent below 10; inactive = the rest.

Answered examples (5):
>>> df
                                   compound            result
0   COc1ccc(/C=C(/c2ccccc2)[N+](=O)[O-])cc1   -97.4% (active)
1  COc1ccc(CNC(=O)COc2ccc(/C=N/Nc3nc4ccccc4s3)cc2)cc1    8.13% (active)
2  COc1ccc(C2CC(n3nnnc3-c3ccccc3)=NN2)cc1 (centres undefined)  42.1% (inactive)
3  CC(C)(O)C1CCCN1C(=O)c1ccccc1I (centres undefined)   105% (inactive)
4  CC(=O)c1cc2c(N)c(C(=O)Nc3cncc4ccccc34)sc2nc1C  97.1% (inactive)

Exam item: Provide growth value for the following compound: `Cn1c(COC(=O)NCCc2ccccn2)nc2c(N3CCOCC3)nc(Cl)nc21`
Marked response: -100% (active)

Exam item: Indicate the recorded growth value for this compound: `COc1ccc(/C=C\c2nc3ccccc3s2)cc1OP(=O)(O)O`
Marked response: 56.9% (inactive)

Exam item: Supply measured growth of `COc1ccc(-c2nc(SC)nc(N3CCOCC3)c2C#N)cc1` in your reply.
Marked response: 94.3% (inactive)

Exam item: Using the record for Clc1ccc(N2N=C(c3cccc(Nc4ccncc4)c3)CC2c2ccc(Br)cc2)cc1 (centres undefined) , state its measured growth.
Marked response: 2.34% (active)

Exam item: Tell me measured growth for `NC(=O)CN1CCN(c2ccccc2Cl)CC1` please.
Marked response: 103% (inactive)

Exam item: Please list growth recorded for the compound `COc1ccccc1Nc1cc(O)c2c(=O)cc(-c3ccccc3)oc2c1`
Marked response: 50.8% (inactive)

---

Below: a set of entries, each annotated with reported growth.
# Test system: A549/ATCC NSCLC
# assay_explanation: NCI-60 one-dose screen, 48 h (100 = growth as untreated, 0 = no growth, -100 = all killed)
# condition_details: 10 µM unless noted
The panel holds about 83,000 compounds, 20% with a hit somewhere; the sample as a whole holds those more often. The source made the active and inactive calls. The calls were made as follows: active = growth percent below 10; inactive = the rest.

// known answers, use as guide
compound	growth
O=C(O)CNC(=O)CN1C(=O)c2ccccc2C1=O	81.6% (inactive)
CCCCCCC/C=C/[C@H]1O[C@]2(O)C(=O)C=C3C[C@@H](O[C@@H]4O[C@H](CO)[C@@H](O)C(O)[C@@H]4O)C[C@@H]3[C@H]2C=C1C (stereo not given in full)	59.8% (inactive)
CCCNC(=O)Oc1ccc(/C(=C(\C)c2ccccc2)c2ccc(OCCN3CCCCC3)cc2)cc1	62.2% (inactive)
CN1CCCC1=Nc1ccccc1	97.9% (inactive)
COc1ccc(C2CC(n3nnnc3-c3ccccc3)=NN2)cc1 (stereo not given)	60.2% (inactive)
CCCCCN1C=C/C(=C\C(=O)N(C)c2ccc(Br)cc2)c2ccccc21	95.2% (inactive)
O=C1c2cccnc2C(=O)c2nc3cc(N4CCN(C5CC5)CC4)ccc3nc21	-53.3% (active)
C1=C2CNCC3=Cc4ccc5ccccc5c4OC23Oc2c1ccc1ccccc21	50.6% (inactive)
COc1c(Cl)cc(Cl)c2ccc(C=C3C(=O)N(C)C(=O)N(C)C3=O)nc12	111% (inactive)

Continue with the compound presented below.
Exam item: Give growth for this entry on A549/ATCC NSCLC: CN1C(=O)N(C)C2NC(N/N=C/c3ccccc3)=NC21 (stereo not given)
Marked response: 100% (inactive)

---

# Test system: NCI-H226 lung
# assay_explanation: NCI-60 one-dose screen, 48 h
# condition_details: 10 µM unless noted
This is part of a sample that, as a whole, favours compounds with a hit. Of some 83,000 tested, about 20% had one in any assay. The source made the active and inactive calls. Rule for the calls: active = growth percent below 10; inactive = the rest.
Result category, one only: TRUE (active), FALSE (inactive)

Answered cases to consult:
compound	discrete_label
O=S(=O)(NCCNc1nccc(-c2c(-c3ccc(F)c(O)c3)nc3sccn23)n1)c1ccccc1	FALSE
O=S(=O)(O)c1cc(O)c2c(N=Nc3ccc(Nc4ccccc4)c4c(S(=O)(=O)O)cccc34)cc(S(=O)(=O)O)cc2c1	FALSE
CN1C(=O)N(C)[C@H]2NC(NN)=N[C@H]21	FALSE

Exam item: Fill in: this test's call for `Cc1nn(-c2ccccc2)c(N2CCOCC2)c1/C=N/N=c1\sc2ccccc2n1C` is ___
Marked response: FALSE

Exam item: Status in this test for `COc1ccc(C2=C(c3ccccc3)c3ccc(OC(C)=O)cc3OC2(C)C)cc1` ?
Marked response: FALSE

Exam item: Please let me know the test result on file for `C[C@]12C[C@H]1CC[C@]1(C)[C@@H]2CC[C@@]23C[C@H](CC[C@H]21)[C@@](O)(CO)C3` .
Marked response: FALSE

Exam item: How did this test come out for `Cc1cccc(C)c1-c1cc(Cc2ccc(Cl)cc2)c(=O)[nH]n1` ?
Marked response: FALSE

Exam item: Field: outcome | Entry: `O=C(Cc1ccc(/C=C/C(=O)c2ncc[nH]2)cc1)Nc1ccc(C(F)(F)F)cc1`
Marked response: FALSE

---

# Test system: SW-620 colon
# assay_explanation: NCI-60 one-dose screen, 48 h (100 = growth as untreated, 0 = no growth, -100 = all killed)
# condition_details: 10 µM unless noted
# Procedure: Growth inhibition of the SW-620 human tumor cell line is measured as a screen for anti-cancer activity. Cells are grown in 96 well plates and exposed to the test compound for 48 hours. Compounds are tested at a single concentration, which is 10^-5 M for most compounds. The reported endpoint is percent growth (GI% or GIPRCNT), where numbers from 0 - 100% represent growth inhibition, and numbers from -100% - 0 represent cell death. For example, a value of 40 represents 60% growth inhibition. […]
About 83,000 compounds went through this panel and 20% of them were active in at least one assay; those are over-represented in the sample as a whole.
Each record is given 1 (yes) if its reported growth is strictly below 50%. Records at or above 50% are given 0 (no).

Answered examples (3):
compound	discrete_label
CC[C@H](CC[C@@H](C)[C@H]1CC[C@H]2[C@@H]3CC=C4C[C@@H](OCCc5nn[nH]n5)CC[C@]4(C)[C@H]3CC[C@]12C)C(C)C	0 (no)
COc1cc2nc(-c3ccc(C#N)cc3)[nH]c(=O)c2cc1OC	0 (no)
CCn1ccnc1C(=O)/C=C/c1ccc(CC(=O)Nc2ccc(F)cc2)cc1	1 (yes)

Exam item: Does this compound meet the criterion growth < 50%? `CCOC(=O)Oc1c(OC)cc(C(=O)O[C@@H]2C[C@@H]3CN4CCc5c([nH]c6cc(OC)ccc56)[C@H]4C[C@@H]3[C@H](C(=O)OC)[C@H]2OC)cc1OC`
Marked response: 1 (yes)

Exam item: Please state whether growth is below 50% for `Nc1c(C(=O)Nc2cccc3ccncc23)sc2nc3c(cc12)C(=O)CCC3`
Marked response: 1 (yes)

Exam item: In plain terms, does CCCC1C(C(=O)OCC)=C(N)Oc2cc(O)ccc21 (stereo not drawn) come in under 50% for growth?
Marked response: 0 (no)

Exam item: Please state whether growth is below 50% for `Cc1ccc(-c2c(Br)c(OC(=O)CO[C@@H]3C[C@H](C)CC[C@H]3C(C)C)c(-c3ccc(C)cc3C)c(Br)c2OC(=O)CO[C@H]2C[C@@H](C)CC[C@@H]2C(C)C)c(C)c1`
Marked response: 0 (no)

Exam item: Is it true that growth reported for `CC(C)(C)CC(C)(C)Nc1c(-c2ccc(C(F)(F)F)cc2)nc2cnccn12` is less than 50%?
Marked response: 0 (no)
